All values here come from ChEMBL document CHEMBL5226279.

tgt: UniProt Q9UBN7
Sequence (Q9UBN7 whole entry): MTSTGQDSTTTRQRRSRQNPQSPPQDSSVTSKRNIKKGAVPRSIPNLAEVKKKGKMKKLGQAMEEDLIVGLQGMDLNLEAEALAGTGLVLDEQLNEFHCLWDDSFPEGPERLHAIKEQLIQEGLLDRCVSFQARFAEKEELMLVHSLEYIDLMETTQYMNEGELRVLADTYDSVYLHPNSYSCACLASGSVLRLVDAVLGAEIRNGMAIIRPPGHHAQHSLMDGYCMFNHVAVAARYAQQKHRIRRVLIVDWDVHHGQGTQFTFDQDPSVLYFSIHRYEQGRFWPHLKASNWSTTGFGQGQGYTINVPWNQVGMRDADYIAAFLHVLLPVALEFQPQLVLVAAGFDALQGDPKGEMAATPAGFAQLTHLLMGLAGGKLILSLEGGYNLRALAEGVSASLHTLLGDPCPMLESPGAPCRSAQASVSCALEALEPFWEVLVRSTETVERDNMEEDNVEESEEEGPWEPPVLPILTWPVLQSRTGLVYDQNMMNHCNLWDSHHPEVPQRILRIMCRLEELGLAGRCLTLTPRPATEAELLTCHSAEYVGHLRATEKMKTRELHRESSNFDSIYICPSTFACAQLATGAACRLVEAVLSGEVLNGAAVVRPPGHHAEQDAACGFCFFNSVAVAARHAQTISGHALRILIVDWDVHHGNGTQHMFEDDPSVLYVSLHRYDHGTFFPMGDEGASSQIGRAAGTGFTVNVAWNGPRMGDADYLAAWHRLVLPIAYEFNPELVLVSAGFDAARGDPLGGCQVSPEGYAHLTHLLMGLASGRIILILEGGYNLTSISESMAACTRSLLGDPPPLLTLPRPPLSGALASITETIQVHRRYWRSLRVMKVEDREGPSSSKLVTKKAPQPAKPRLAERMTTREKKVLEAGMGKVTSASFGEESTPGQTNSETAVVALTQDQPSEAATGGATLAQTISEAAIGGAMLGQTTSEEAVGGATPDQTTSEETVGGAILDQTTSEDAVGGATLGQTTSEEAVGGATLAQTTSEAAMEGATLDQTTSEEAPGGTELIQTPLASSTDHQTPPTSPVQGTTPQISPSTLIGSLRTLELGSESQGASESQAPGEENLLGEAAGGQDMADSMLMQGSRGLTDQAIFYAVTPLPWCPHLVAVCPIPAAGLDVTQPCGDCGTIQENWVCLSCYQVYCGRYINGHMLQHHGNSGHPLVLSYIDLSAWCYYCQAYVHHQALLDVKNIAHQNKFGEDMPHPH
method: Inhibition of human full length recombinant HDAC6 expressed in baculovirus infected Sf9 cells using RHKKAc as substrate preincubated for 5 to 10 mins followed by substrate addition and measured after 2 hrs by fluorescence based analysis
value.kind: pIC50
Field pIC50 (float): negative decimal logarithm of the concentration in molar.

Record summary for Cc1onc(-c2ccccc2)c1COCCCCCNC(=O)C(C)S (racemic) : reported pIC50 = 6.07

response.value for Cc1noc(-c2cccc(F)c2)c1C#CCCCCCNC(=O)C(C)S (racemic) (field: pIC50) = 5.59

Entry under test: Cc1onc(-c2ccccc2)c1C=CCCCCCNC(=O)CS (mixture of isomers) . Its pIC50 was 5.57

Query Cc1noc(-c2ccccc2)c1C#CCCCCCNC(=O)C(C)S (racemic) yields pIC50 of 5.70
